- EXPERIMENT_SUMMARY: doxorubicin toxicity protection in MRP-1 cells – H69AR cells, CellTiter-Glo, duplicate, MRP-1 activator project, pilot screen (AID 807);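 also: compound pretreatment 18-22 h then 72 h combined with doxorubicin; 0% = doxorubicin alone and 100% = vehicle without doxorubicin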
- RECORDED_CONDITIONS: H69AR viability with doxorubicin, CellTiter-Glo luminescence; at 10 µM; active compounds read high
Known viability increase of a selection of compounds
Report only the number, with the unit % understood.

q: For the compound Cc1ccccc1-n1nc(C(=O)O)c(C)c(C#N)c1=O , what viability increase is on record?
a: -0.28

###

- EXPERIMENT_SUMMARY: viability of PTEN-null HCT116 cells – cell-based, HCT116 clonal line, CellTiter-Glo, pilot screen (AID 824);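 also: 0% = 20 µM Hyamine control and 100% = vehicle cell control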
- RECORDED_CONDITIONS: HCT116 PTEN-deleted viability, 60 h, at 10 µM, active compounds read low
Inconclusive results are not listed.
EXPERIMENTAL_READOUT: viability (%)
Report only the number, with the unit % understood.

Solved cases below.
> print(dat)
                                   compound  unit.abbrev  test.result
1  Cc1nn(C(=O)c2ccc3c(c2)OCO3)c(N)c1-c1ccccc1            %         98.2
2  COC(=O)Cn1c(CN2CCc3ccccc3C2)nc2c1c(=O)n(C)c(=O)n2C            %         96.2
3  O=C(NC1CCCCCC1)C1CCCN1S(=O)(=O)c1cccc2cccnc12 (stereo unspecified)            %         92.1
4    Cn1c(Cn2c(=O)sc3ccccc32)nnc1SCc1ccccc1            %         71.2

q: For the compound Cc1cccc(-n2ncc3c(NCCCO)ncnc32)c1 , what viability is on record?
a: 104

q: Similarly, COC(=O)c1ccc(NC(=O)C2C3CCC(C3)C2C(=O)O)cc1 (stereo unspecified) ?
a: 93.6

q: Similarly, COc1ccc(-n2c(Cc3cccn3C)nnc2SCC(=O)Nc2ccccc2C)cc1 ?
a: 81.7

q: Similarly, CC1CCN(C(C(=O)Nc2ccc3c(c2)OCO3)c2ccccc2)CC1 (stereo unspecified) ?
a: 78.7

q: Similarly, O=C(NC1CC1)c1ccc(CSCc2cccc(F)c2)o1 ?
a: 86.3

q: Similarly, CCOc1ccc(NC(=O)CCN2CCN(c3ccccc3)CC2)cc1 ?
a: 80.4

q: Similarly, O=C1c2ccccc2S(=O)(=O)N1CC(O)Cn1c2ccccc2c2ccccc21 (stereo unspecified) ?
a: 96.3

###

- EXPERIMENT_SUMMARY: RAM signaling pathway blockade in yeast – S. cerevisiae, Pdr1DBD-CYC8 efflux-inhibited sensitized strain, primary screen (AID 1298);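 also: 0% = DMSO untreated cells without growth and 100% = 10 µM 1-NA-PP1 full growth; higher means more yeast growth rescued from 5-FOA killing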
- RECORDED_CONDITIONS: S. cerevisiae cbk1-as DSE1-URA3 strain, 5-FOA growth OD615, 2 d; at 50 µM; active compounds read high
Respond with t for RAM network inhibition values of 3% and above, f for values below.

For orientation, consider the following solved cases.
> print(dat)
                                   compound  category.label
1  COC(=O)C(C)Sc1nnc(Cc2cc(=O)[nH]c(=O)[nH]2)n1-c1cc(C)ccc1C (stereo unspecified)               f
2  Cc1cc(C)cc(NC(=O)CSc2nnc(Cc3cccn3C)n2-c2ccc(F)cc2)c1               t
3  Cc1ccc(C)n1-n1c(C)nc2sc(-c3ccccc3)cc2c1=O               t
4          COc1ccccc1CNC(=O)c1cnc2sccn2c1=O               f

Moving on to another compound below.
q: # check: RAM network inhibition of CC(=O)CCc1c(C)[nH]c2ccc(NC(C)=O)cc2c1=O is greater than or equal to 3%
a: f

###

- EXPERIMENT_SUMMARY: S. cerevisiae growth inhibition in restrictive medium, OD615, pilot screen, restrictive growth control, yeast lifespan reduction project (AID 706);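 also: modified DeaD lifespan yeast strain shifted to restrictive glucose medium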
- RECORDED_CONDITIONS: OD615, 48 h, at 10 µM, active compounds read high
EXPERIMENTAL_READOUT: growth inhibition (%)
Report only the number, with the unit % understood.

Solved cases below.
> print(dat)
                                   compound  test.result
1                 CNc1nc(C)nc(-c2ccccc2O)n1         7.31
2  O=C(Cn1c(-c2cncs2)nc2ccccc21)NCCc1ccccc1        -8.58
3  Cc1ccc(C2CC(c3cccc(C)c3)n3ncnc3N2)cc1 (configuration not stated)         15.5
4               CCN1C(=O)c2cccc3c(N)ccc1c23          -11
5    O=C(CS(=O)(=O)Cc1ccccc1)Nc1nc2ccccc2s1        -17.7
6  Cc1ccc(C)c(NC(=O)C2CCC(C)(C(=O)O)C2(C)C)c1 (configuration not stated)        -13.8

q: For the compound CCN1CCCC1CNC(=O)c1cc2c(=O)n(C)c3ccccc3c2n1C (configuration not stated) , what growth inhibition is on record?
a: -3.33

q: Similarly, CC(C)Sc1nc2c(c(=O)n1-c1ccc(F)cc1)SCC2 ?
a: -19.7

###

- EXPERIMENT_SUMMARY: RAM signaling pathway blockade in yeast – S. cerevisiae, Pdr1DBD-CYC8 efflux-inhibited sensitized strain, primary screen (AID 1298);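 also: 0% = DMSO untreated cells without growth and 100% = 10 µM 1-NA-PP1 full growth; higher means more yeast growth rescued from 5-FOA killing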
- RECORDED_CONDITIONS: S. cerevisiae cbk1-as DSE1-URA3 strain, 5-FOA growth OD615, 2 d; at 50 µM; active compounds read high
Respond with Y for RAM network inhibition values of 3% and above, N for values below.

For orientation, consider the following solved cases.
> print(dat)
                                   compound  category.label
1  O=C1OCc2cc(NC(=O)C3COc4ccccc4O3)ccc21 (stereo unspecified)               Y
2      O=c1nc2n(c3sc4c(c13)CCC4)Cc1ccccc1-2               N
3           CCOC(=O)c1csc(NC(=O)C2CCCCC2)n1               N
4  Cc1n[nH]c(C)c1S(=O)(=O)N(CC(=O)N1CCc2ccccc21)c1ccc(C(C)C)cc1               Y
5  COc1ccc(CNC(=O)c2ccc3c(c2)N(C)C(=O)CS3=O)cc1 (stereo unspecified)               N
6  COc1ccc(C2C(C#N)=C(C)NC3=C2C(=O)CC(C)(C)C3)c(OC)c1 (stereo unspecified)               N

Moving on to another compound below.
q: # check: RAM network inhibition of CCOc1ccc(-c2nnc3n2N=C(c2ccc(OC)cc2)CS3)cc1 is greater than or equal to 3%
a: Y

###

- EXPERIMENT_SUMMARY: HUVEC growth inhibition – cell-based, human, primary screen (AID 575);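 also: 100% = median of untreated cell wells with 0.1% DMSO on each plate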
- RECORDED_CONDITIONS: HUVEC proliferation, CellTiter-Glo luminescence, 72 h; at 10 µM; active compounds read low
EXPERIMENTAL_READOUT: viability (%)
Report only the number, with the unit % understood.

Solved cases below.
> print(dat)
                                   compound  test.result
1  Cn1c(NC(=O)c2ccccc2NC(=O)C(C)(C)C)nc2ccccc21         62.8
2            COc1ccc(C/C(N)=N/n2cnnc2)cc1Cl          103
3   COc1ccc(CCNC(=O)c2cc3sc(Cl)cc3n2C)cc1OC         98.3
4  CCCSc1nnc(N2C(=O)CC(c3ccsc3)C3=C2CCCC3=O)s1 (stereo unspecified)         93.8
5  COc1ccc(S(=O)(=O)NCc2ccc3c(c2)OCO3)cc1C(=O)O          109

q: For the compound COc1ccc(-n2c(=O)c3c4c(sc3n3cnnc23)CC(C)CC4)cc1 (stereo unspecified) , what viability is on record?
a: 67.8

###

- EXPERIMENTAL_SYSTEM: Receptor tyrosine-protein kinase erbB-2 (Homo sapiens)
- EXPERIMENT_SUMMARY: Her2 expression decrease, cell viability multiplex – SKBR3 breast tumor cells, AlphaScreen, ATP viability, primary screen (AID 461);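 also: lower value means less Her2 protein in the cells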
- RECORDED_CONDITIONS: 18-24 h, at 10 µM, active compounds read low
EXPERIMENTAL_READOUT: Her2 level (%)
Report only the number, with the unit % understood.

Solved cases below.
> print(dat)
                                    compound                       experimental.system  experimental.readout  test.result
 1  CN1CCN(Cc2nc3c(c(=O)n(C)c(=O)n3C)n2Cc2ccccc2Cl)CC1  Receptor tyrosine-protein kinase erbB-2 (Homo sapiens)            Her2 level         97.5
 2  CCCN1CC23C=CC(O2)C(C(=O)O)C3C1=O (stereo unspecified)  Receptor tyrosine-protein kinase erbB-2 (Homo sapiens)            Her2 level           94
 3  CCSc1nc(O)c(CC)c(=O)n1C(C)CC (stereo unspecified)  Receptor tyrosine-protein kinase erbB-2 (Homo sapiens)            Her2 level          128
 4  COc1cccc(C(=O)Nc2cc(C)c3c(=O)oc4ccccc4c3n2)c1  Receptor tyrosine-protein kinase erbB-2 (Homo sapiens)            Her2 level         62.5
 5  COc1ccc(OCC(=O)N2CC3(C)CC2CC(C)(C)C3)cc1 (stereo unspecified)  Receptor tyrosine-protein kinase erbB-2 (Homo sapiens)            Her2 level           84
 6  COc1cccc(CNC(=O)CCS(=O)(=O)c2cccc3nsnc23)c1  Receptor tyrosine-protein kinase erbB-2 (Homo sapiens)            Her2 level           91
 7  CCCCCn1c(=O)[nH]c2cc(C(=O)NCCCN3CCCCC3)ccc2c1=O  Receptor tyrosine-protein kinase erbB-2 (Homo sapiens)            Her2 level         74.5
 8  CCC(C)NC(=O)c1cc(CC(C)C)on1 (stereo unspecified)  Receptor tyrosine-protein kinase erbB-2 (Homo sapiens)            Her2 level          111
 9  Cc1cc(C)cc(N(CC(=O)NC2CCC(C)CC2)S(=O)(=O)c2c(C)noc2C)c1 (stereo unspecified)  Receptor tyrosine-protein kinase erbB-2 (Homo sapiens)            Her2 level          101
10  CC1CCC(NC(=O)Cn2ncc3ccccc32)CC1 (stereo unspecified)  Receptor tyrosine-protein kinase erbB-2 (Homo sapiens)            Her2 level          108

q: Short answer please: Her2 level, Receptor tyrosine-protein kinase erbB-2 (Homo sapiens), entry Cn1c(SCC(=O)Nc2ccc(F)cc2)nnc1-c1cccnc1
a: 106

q: Similarly, CC1(C)Cc2ccccc2C(N)=C1C#N ?
a: 111

q: Similarly, CCCN(CCC)C(=O)c1c(C)[nH]c(C(=O)OCC)c1C ?
a: 110

q: Similarly, CCOC(=O)C1CCN(Cc2ccc(OC)c(C)c2OC)CC1 ?
a: 97.5

q: Similarly, Cc1nnc(SCC(=O)Nc2c(Cl)cccc2Cl)[nH]c1=O ?
a: 101
